Biological target: Solute carrier family 2, facilitated glucose transporter member 4 (Homo sapiens, UniProt P14672)
Sequence (P14672 whole entry): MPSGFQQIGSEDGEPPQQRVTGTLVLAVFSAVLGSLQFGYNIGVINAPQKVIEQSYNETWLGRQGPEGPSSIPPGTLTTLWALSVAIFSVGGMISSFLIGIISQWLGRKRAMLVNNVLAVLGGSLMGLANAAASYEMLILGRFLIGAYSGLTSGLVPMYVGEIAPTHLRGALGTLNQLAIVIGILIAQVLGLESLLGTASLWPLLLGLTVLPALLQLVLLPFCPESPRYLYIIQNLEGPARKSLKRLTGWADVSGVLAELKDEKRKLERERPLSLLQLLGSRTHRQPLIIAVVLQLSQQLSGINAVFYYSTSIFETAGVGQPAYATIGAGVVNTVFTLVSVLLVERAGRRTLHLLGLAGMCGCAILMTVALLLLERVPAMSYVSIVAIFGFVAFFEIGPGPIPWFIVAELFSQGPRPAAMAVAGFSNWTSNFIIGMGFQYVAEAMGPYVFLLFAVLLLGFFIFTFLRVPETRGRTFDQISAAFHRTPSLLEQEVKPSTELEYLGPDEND
Experiment: Inhibition of human GLUT4 expressed in CHO cells assessed as reduction in glucose uptake by measuring decrease in ATP production preincubated for 20 mins followed by glucose addition and measured after 15 mins in presence of oxidative phosphorylation inhibitor rotenone by CellTiter-Glo Luminescent Cell Viability Assay
pIC50: −log10 of the molar value.

# ITEM_SMILES, pIC50
data = [
    ("Cc1c(NC(=O)c2cc(C(N)=O)nc3cc(F)ccc23)c(C(F)(F)F)nn1Cc1ccc(C#N)cn1", 6.21),
    ("Cc1c(NC(=O)c2cc(C(N)=O)nc3ncccc23)c(C(F)(F)F)nn1Cc1ccc(C#N)cc1", 6.00),
    ("Cc1ccc2nc(C(N)=O)cc(C(=O)Nc3c(C(F)(F)F)nn(Cc4ccc(C#N)cc4)c3C)c2c1", 6.92),
    ("Cc1c(NC(=O)c2cc(C(N)=O)nc3cc(F)ccc23)c(C(F)(F)F)nn1Cc1cnc(C#N)cn1", 7.80),
    ("Cc1c(NC(=O)c2cc(C(N)=O)nc3cc(F)ccc23)c(C(F)(F)F)nn1Cc1cccc(C#N)c1", 6.02),
    ("Cc1c(NC(=O)c2cc(C(N)=O)nc3cc(F)ccc23)c(C(F)(F)F)nn1Cc1ccc(C(C)(C)C)cc1", 6.30),
    ("Cc1nn(CCc2ccc(F)cc2)c(C)c1NC(=O)c1cc(C(F)(F)F)nc2ccc(Br)cc12", 6.47),
    ("Cc1c(NC(=O)c2cc(C(N)=O)nc3cc(F)ccc23)c(C(F)(F)F)nn1Cc1ccccc1C#N", 7.06),
    ("Cc1c(NC(=O)c2cc(C(N)=O)nc3cc(F)c(F)cc23)c(C(F)(F)F)nn1Cc1ccc(C#N)cc1", 6.74),
    ("Cc1c(NC(=O)c2cc(C(N)=O)nc3scnc23)c(C(F)(F)F)nn1Cc1ccc(C#N)cc1", 6.55),
    ("Cc1c(NC(=O)c2cc(C(N)=O)nc3cc(F)cc(F)c23)c(C(F)(F)F)nn1Cc1ccc(C#N)cc1", 7.80),
    ("Cc1nc(C)c(-c2cc(C(=O)Nc3c(C(F)(F)F)nn(Cc4ccc(C#N)cc4)c3C)c3ccccc3n2)s1", 6.04),
    ("Cc1nn(Cc2ccc(C#N)cc2F)c(C)c1NC(=O)c1cc(C(F)(F)F)nc2ccc(Br)cc12", 6.06),
    ("Cc1c(NC(=O)c2cc(C(N)=O)nc3cc(F)ccc23)c(C(F)(F)F)nn1Cc1ccc(C(F)(F)F)cc1", 6.04),
    ("Cc1cccc(Cn2nc(C(F)(F)F)c(NC(=O)c3cc(C(N)=O)nc4cc(F)ccc34)c2C)c1", 6.21),
    ("Cc1c(NC(=O)c2cc(C(N)=O)nc3cc(F)ccc23)c(C(F)(F)F)nn1Cc1ccc(OC(F)(F)F)cc1", 6.43),
    ("Cc1cccc2nc(C(N)=O)cc(C(=O)Nc3c(C(F)(F)F)nn(Cc4ccc(C#N)cc4)c3C)c12", 7.77),
]
